- System: SARS-CoV-2
- methodNotes: Antiviral activity against SARS-CoV-2 infected in African green monkey Vero E6 cells assessed as inhibition of viral spread cells preincubated with compound for 1 hr followed by viral infection for 1 hr and later washed with PBS followed by re-incubated with compound for 48 hrs
- Type: functional, organism-based, Severe acute respiratory syndrome coronavirus 2
- conditionSet: vero e6
measurementLabel: IC50 (µM)
Numbers only here, please. The scale is µM.

-- ask Looking for the measured IC50 of IVERMECTIN , can you help?
-- reply 6.02
